TARGET_SYSTEM: nociceptin receptor (human, UniProt P41146)
Sequence (P41146 whole entry): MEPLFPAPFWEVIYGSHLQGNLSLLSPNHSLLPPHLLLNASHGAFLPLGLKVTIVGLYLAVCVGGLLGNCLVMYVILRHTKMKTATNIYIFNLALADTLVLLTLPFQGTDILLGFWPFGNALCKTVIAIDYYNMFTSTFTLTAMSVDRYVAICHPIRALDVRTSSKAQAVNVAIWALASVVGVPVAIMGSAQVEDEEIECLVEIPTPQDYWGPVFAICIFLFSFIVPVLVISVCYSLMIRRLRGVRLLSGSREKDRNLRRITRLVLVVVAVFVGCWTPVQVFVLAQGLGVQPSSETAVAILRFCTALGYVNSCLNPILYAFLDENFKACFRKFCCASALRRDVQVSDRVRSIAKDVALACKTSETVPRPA
PROTOCOL_DESCRIPTION: competition, [3H]nociceptin, 25C, pH 7.8
Numbered stars: 1 amine (or outer) side, 2 acyl side, 3 side chain; on linkers, the order of the positions; unused ones are H or OH. Square brackets hold non-standard residues; d marks the D form. * marks the point of attachment. X1 = N‑((R)-1-(2-naphthyl)ethyl)amide, C[C@@H](N*)c1ccc2ccccc2c1; 3,5‑dimethyl‑Tyr = Cc1cc(C[C@H](N[*:1])C(=O)[*:2])cc(C)c1O[*:3]; 6‑guanidinohexyl = N=C(N)NCCCCCC*
Recorded pKi values for a group of binders are listed next.
Scale: negative log10 of molar concentration, which is what pKi denotes.

Examples with their reported pKi follow.
{6‑guanidinohexyl}-[3,5‑dimethyl‑Tyr]-Tyr-Arg-X1 (SMILES Cc1cc(C[C@H](NCCCCCCNC(=N)N)C(=O)N[C@@H](Cc2ccc(O)cc2)C(=O)N[C@@H](CCCNC(=N)N)C(=O)N[C@H](C)c2ccc3ccccc3c2)cc(C)c1O) [Example 25 (N-α-6-guanidinohexyl-3,5-dimethyl-Tyr-Tyr-N-[(R)-1-(2-naphthyl)ethyl]-argininamide)] = 9.05
{6‑guanidinohexyl}-[3,5‑dimethyl‑Tyr]-[3,5‑dimethyl‑Tyr]-Arg-X1 (SMILES Cc1cc(C[C@H](NCCCCCCNC(=N)N)C(=O)N[C@@H](Cc2cc(C)c(O)c(C)c2)C(=O)N[C@@H](CCCNC(=N)N)C(=O)N[C@H](C)c2ccc3ccccc3c2)cc(C)c1O) = 9.22
{6‑guanidinopentyl}-Tyr-Tyr-Arg-X1 [Example 23 (N-α-6-guanidinopentyl-Tyr-Tyr-N-[(R)-1-(2-naphthyl)ethyl]-argininamide)] = 8.74

Per the records, this binder ( {6‑guanidinohexyl}-YYRW-NH2 (SMILES N=C(N)NCCCCCCN[C@@H](Cc1ccc(O)cc1)C(=O)N[C@@H](Cc1ccc(O)cc1)C(=O)N[C@@H](CCCNC(=N)N)C(=O)N[C@@H](Cc1c[nH]c2ccccc12)C(N)=O) [Example 1 (N-α-6-guanidinohexyl-Tyr-Tyr-Arg-Trp-NH2)] ) has pKi equal to 9.37
